Target: T1, fragment DIR-II (last 27 amino acids of the sequence encoded by the retained intron of DIR) (human)
T1 construct: also called target fragment DIR-II
T1 peptide: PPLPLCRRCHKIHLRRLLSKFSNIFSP
Assay: ELISA, DIR-II coated; mAb (1 mg/mL) diluted 1:1458k
The following binders are shown together with reported absorbance at 450 nm values.

{"Binder": "DIR antibody IR-II-4 (antibody, V domains shown, Monoclonal antibody) VH: QVQLQQSGAELMKPGASVKISCKATGYTFSSYWIEWVKQRPGHGLEWIGEILPGSGSTNYNEKFKGKATFTADTSSNTAYMQLNSLTSEDSAVYYCARTDDGYLSYFAMDYWGQGTSVTVSS VL: DILMTQTPASLAVSLGQRATISCKASQSVDYDGDSYMNWYQQKPGQPPKLLIYAASNLESGIPARFSGSGSGTDFTLNIHPVEEEDAATYYCQQSNEDPRTFGGGTKLEIK", "absorbance at 450 nm": "0.0751 absorbance (450 nm)"}
{"Binder": "DIR antibody IR-II-7 (antibody, V domains shown, Monoclonal antibody) VH: QVQLQQSGAELMKPGASVKISCKATGYTFSNYWIEWIKQRPGHGLEWIGEILPGSYYSTNYNEKFKDKATFTADTSSNTAYIQLSSLTSEDSAVYYCARSGIITTRGDYFAMDYWGQGTSVTVSS VL: DIVLTQSPASLAVSLGQRATISCKASQSVDYDGDSYMNWYQQKPGQPPKLLMYAASNLESGIPARFSGSGSGTDFTLNIHPVEEEDAATYYCQQSNEDPRTFGGGTKLEIK", "absorbance at 450 nm": "0.103 absorbance (450 nm)"}
{"Binder": "DIR antibody IR-II-5 (antibody, V domains shown, Monoclonal antibody) VH: QVQLQQSGAEVMKPGASVKISCKATGYTFSSYWIEWIKQRPGHGLEWIGEILPGGYNTNSNENFKGKATFTADTSSNTAYMQLSSLTSEDSAVYYCARSGMITTTGDYYAMDYWGQGTSVTVSS VL: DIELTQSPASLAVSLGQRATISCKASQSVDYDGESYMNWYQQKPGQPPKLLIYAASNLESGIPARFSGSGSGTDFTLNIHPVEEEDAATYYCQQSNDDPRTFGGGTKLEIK", "absorbance at 450 nm": "0.0911 absorbance (450 nm)"}
